# key: entry, value: viability at 24 h, 50 µM
assayOverview: Cytotoxicity against human SH-SY5Y cells assessed as effect on cell viability at 50 uM measured after 24 hrs by MTT assay relative to control
Assay type: toxicity, cell-based
assaySetup: read-out: Activity
measuredParameter: viability at 24 h, 50 µM (%)

1) CC(=O)c1ccc(N(CC(F)(F)F)S(=O)(=O)c2ccccc2)cc1 :: 81.3
2) COC(=O)c1ccc(-n2cc(CN(c3ccc(C(C)=O)cc3)S(=O)(=O)c3ccccc3)nn2)cc1 :: 71.8
3) Cc1ccc(C)c(-n2cc(CN(c3ccc(C(O)(C(F)(F)F)C(F)(F)F)cc3)S(=O)(=O)c3ccccc3)nn2)c1 :: 93
4) CC(=O)c1ccc(N(Cc2cn(-c3ccccc3C#N)nn2)S(=O)(=O)c2ccccc2)cc1 :: 99
5) CC(=O)c1ccc(N(Cc2cn(-c3ccc(Cl)cc3)nn2)S(=O)(=O)c2ccccc2)cc1 :: 74.4
6) CC(=O)c1ccc(N(Cc2cn(-c3ccc([N+](=O)[O-])cc3)nn2)S(=O)(=O)c2ccccc2)cc1 :: 105
7) O=S(=O)(c1ccccc1)N(Cc1cn(-c2ccc(F)cc2)nn1)c1ccc(C(O)(C(F)(F)F)C(F)(F)F)cc1 :: 36.4
8) O=S(=O)(c1ccccc1)N(Cc1cn(-c2c(F)cccc2F)nn1)c1ccc(C(O)(C(F)(F)F)C(F)(F)F)cc1 :: 125

Origin of measurements: ChEMBL document CHEMBL3865833
